Attribution: patent US9193733B2

tested on: human JAK1 (a.a. 837-1142) catalytic domain; assay: In vitro JAK kinase assay (HTRF, phosphorylation of a biotinylated peptide), JAK1; format: biochemical; settings: ratio of JAK2 IC50 to JAK1 IC50, 1 mM ATP
readout kind: JAK2/JAK1

CC1(NCc2cc(OC3CCN([C@H]4C[C@](CC#N)(n5cc(-c6ncnc7[nH]ccc67)cn5)C4)CC3)nc(C(F)(F)F)c2)COC1 [Example 9]; >10
N#CC[C@]1(n2cc(-c3ncnc4[nH]ccc34)cn2)C[C@H](N2CCC(Oc3cc(CN[C@@H]4CCOC4)cc(C(F)(F)F)n3)CC2)C1 [Example 8]; >10

Note: attention shifts to another entry.
Ask: Requested read-out: JAK2/JAK1. Entry: N#CC[C@]1(n2cc(-c3ncnc4[nH]ccc34)cn2)C[C@H](N2CCC(Oc3cc(CN4CC5(COC5)C4)cc(C(F)(F)F)n3)CC2)C1 [Example 6]
Result: >10

###

test system: human JAK1 (a.a. 837-1142) catalytic domain; assay: In vitro JAK kinase assay (HTRF, phosphorylation of a biotinylated peptide), JAK1; format: biochemical; conditions: ratio of JAK2 IC50 to JAK1 IC50, 1 mM ATP
readout kind: JAK2/JAK1

Below: 2 compounds and their reported JAK2/JAK1.
CC1(NCc2cc(OC3CCN([C@H]4C[C@](CC#N)(n5cc(-c6ncnc7[nH]ccc67)cn5)C4)CC3)nc(C(F)(F)F)c2)CC1; >10
COCc1cc(NC2CCN([C@H]3C[C@](CC#N)(n4cc(-c5ncnc6[nH]ccc56)cn4)C3)CC2)nc(C(F)(F)F)c1; >10

Ask: Requested read-out: JAK2/JAK1. Entry: CN(CCO)Cc1cc(OC2CCN([C@H]3C[C@](CC#N)(n4cc(-c5ncnc6[nH]ccc56)cn4)C3)CC2)nc(C(F)(F)F)c1
Result: >10

###

target: human JAK2 (a.a. 828-1132) catalytic domain (Homo sapiens); construct: human JAK1 (a.a. 837-1142) and JAK2 (a.a. 828-1132); His tag (N); made in house; host or cells: insect cells (baculovirus); assay: In vitro JAK kinase assay (HTRF, phosphorylation of a biotinylated peptide), JAK2; assay type: biochemical; conditions: 1 mM ATP
Sequence (O60674 828-1132): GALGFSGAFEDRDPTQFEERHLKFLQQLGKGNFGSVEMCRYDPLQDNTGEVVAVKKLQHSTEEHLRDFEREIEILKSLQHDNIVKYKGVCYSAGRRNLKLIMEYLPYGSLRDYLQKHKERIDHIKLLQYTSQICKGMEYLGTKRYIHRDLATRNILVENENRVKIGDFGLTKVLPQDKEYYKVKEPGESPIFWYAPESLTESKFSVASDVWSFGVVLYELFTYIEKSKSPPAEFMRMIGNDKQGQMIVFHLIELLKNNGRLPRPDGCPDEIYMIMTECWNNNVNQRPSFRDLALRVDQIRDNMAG
readout kind: IC50

Ask: What reported IC50 corresponds to N#CC[C@]1(n2cc(-c3ncnc4[nH]ccc34)cn2)C[C@H](N2CCC(Nc3cc(CN4CCC4)cc(C(F)(F)F)n3)CC2)C1 on human JAK2 (a.a. 828-1132) catalytic domain (Homo sapiens)?
Result: 20 to 150 nM

Ask: // query: N#CC[C@]1(n2cc(-c3ncnc4[nH]ccc34)cn2)C[C@H](N2CCC(Oc3cc(CNC4COC4)cc(C(F)(F)F)n3)CC2)C1
Result: 20 to 150 nM

Ask: // query: N#CC[C@]1(n2cc(-c3ncnc4[nH]ccc34)cn2)C[C@H](N2CCC(Nc3cc(CO)cc(C(F)(F)F)n3)CC2)C1
Result: 20 to 150 nM

Ask: // query: CC1(C)CN(Cc2cc(NC3CCN([C@H]4C[C@](CC#N)(n5cc(-c6ncnc7[nH]ccc67)cn5)C4)CC3)nc(C(F)(F)F)c2)C1
Result: 20 to 150 nM

Ask: // query: N#CC[C@]1(n2cc(-c3ncnc4[nH]ccc34)cn2)C[C@H](N2CCC(Nc3cc(CN4CCC(F)(F)C4)cc(C(F)(F)F)n3)CC2)C1
Result: 150 to 500 nM

Ask: // query: N#CC[C@]1(n2cc(-c3ncnc4[nH]ccc34)cn2)C[C@H](N2CCC(Oc3cc(C4(N)COC4)cc(C(F)(F)F)n3)CC2)C1
Result: 20 to 150 nM

Ask: // query: N#CC[C@]1(n2cc(-c3ncnc4[nH]ccc34)cn2)C[C@H](N2CCC(Nc3cc(CO)nc(C(F)(F)F)n3)CC2)C1
Result: 20 to 150 nM

Ask: // query: N#CC[C@]1(n2cc(-c3ncnc4[nH]ccc34)cn2)C[C@H](N2CCC(Nc3cc(CNCCO)cc(C(F)(F)F)n3)CC2)C1
Result: 20 to 150 nM

Ask: // query: CN(CCO)Cc1cc(NC2CCN([C@H]3C[C@](CC#N)(n4cc(-c5ncnc6[nH]ccc56)cn4)C3)CC2)nc(C(F)(F)F)c1
Result: 20 to 150 nM

Ask: // query: CCNCc1cc(NC2CCN([C@H]3C[C@](CC#N)(n4cc(-c5ncnc6[nH]ccc56)cn4)C3)CC2)nc(C(F)(F)F)n1
Result: 20 to 150 nM

Ask: // query: C[C@@H](CO)NCc1cc(OC2CCN([C@H]3C[C@](CC#N)(n4cc(-c5ncnc6[nH]ccc56)cn4)C3)CC2)nc(C(F)(F)F)c1
Result: 20 to 150 nM

Ask: // query: N#CC[C@]1(n2cc(-c3ncnc4[nH]ccc34)cn2)C[C@H](N2CCC(Nc3cc(CN[C@H]4C[C@H](O)C4)cc(C(F)(F)F)n3)CC2)C1
Result: 20 to 150 nM

Ask: // query: CN(Cc1cc(NC2CCN([C@H]3C[C@](CC#N)(n4cc(-c5ncnc6[nH]ccc56)cn4)C3)CC2)nc(C(F)(F)F)c1)C1CC1
Result: 150 to 500 nM

###

biological target: human JAK2 (a.a. 828-1132) catalytic domain (Homo sapiens); construct: human JAK1 (a.a. 837-1142) and JAK2 (a.a. 828-1132); His tag (N); made in house; host or cells: insect cells (baculovirus); assay: In vitro JAK kinase assay (HTRF, phosphorylation of a biotinylated peptide), JAK2; assay type: biochemical; conditions: 1 mM ATP
Reported IC50 values are given for each entry in this list.

CC1(C)CN(Cc2cc(OC3CCN([C@H]4C[C@](CC#N)(n5cc(-c6ncnc7[nH]ccc67)cn5)C4)CC3)nc(C(F)(F)F)c2)C1 [Example 13]; 20 to 150 nM
C[C@H](O)CNCc1cc(OC2CCN([C@H]3C[C@](CC#N)(n4cc(-c5ncnc6[nH]ccc56)cn4)C3)CC2)nc(C(F)(F)F)c1 [Example 15]; 20 to 150 nM

Note: attention shifts to another entry.
Ask: Requested read-out: IC50. Entry: CN(CCO)Cc1cc(OC2CCN([C@H]3C[C@](CC#N)(n4cc(-c5ncnc6[nH]ccc56)cn4)C3)CC2)nc(C(F)(F)F)c1 [Example 17]
Result: 20 to 150 nM

###

target: human JAK1 (a.a. 837-1142) catalytic domain (Homo sapiens, UniProt P23458); construct: human JAK1 (a.a. 837-1142) and JAK2 (a.a. 828-1132); His tag (N); made in house; host or cells: insect cells (baculovirus); assay: In vitro JAK kinase assay (HTRF, phosphorylation of a biotinylated peptide), JAK1; type: biochemical; details: 1 mM ATP
Sequence (P23458 849-1154): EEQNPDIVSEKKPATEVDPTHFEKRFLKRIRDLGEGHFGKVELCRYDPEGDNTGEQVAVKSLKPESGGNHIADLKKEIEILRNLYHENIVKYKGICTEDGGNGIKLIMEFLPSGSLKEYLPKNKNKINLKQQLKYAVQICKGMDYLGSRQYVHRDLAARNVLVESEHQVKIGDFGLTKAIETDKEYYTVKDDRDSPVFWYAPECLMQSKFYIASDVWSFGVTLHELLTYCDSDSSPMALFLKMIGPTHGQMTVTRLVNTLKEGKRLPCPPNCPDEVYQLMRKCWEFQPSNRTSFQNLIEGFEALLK
readout kind: IC50

Ask: Requested read-out: IC50. Entry: N#CC[C@]1(n2cc(-c3ncnc4[nH]ccc34)cn2)C[C@H](N2CCC(Oc3cc(Cn4ccnc4)cc(C(F)(F)F)n3)CC2)C1 [Example 22]
Result: < 20 nM

###

Reported IC50 values are given for each entry in this list.
molecular target: human JAK1 (a.a. 837-1142) catalytic domain (Homo sapiens); construct: human JAK1 (a.a. 837-1142) and JAK2 (a.a. 828-1132); His tag (N); made in house; host or cells: insect cells (baculovirus); experiment: In vitro JAK kinase assay (HTRF, phosphorylation of a biotinylated peptide), JAK1; assay type: biochemical; settings: 1 mM ATP

CN(Cc1cc(NC2CCN([C@H]3C[C@](CC#N)(n4cc(-c5ncnc6[nH]ccc56)cn4)C3)CC2)nc(C(F)(F)F)c1)C1CC1; < 20 nM
N#CC[C@]1(n2cc(-c3ncnc4[nH]ccc34)cn2)C[C@H](N2CCC(Nc3cc(CN4CCOCC4)cc(C(F)(F)F)n3)CC2)C1; < 20 nM

Note: attention shifts to another entry.
Ask: What reported IC50 corresponds to N#CC[C@]1(n2cc(-c3ncnc4[nH]ccc34)cn2)C[C@H](N2CCC(Nc3cc(CN4CC5(COC5)C4)cc(C(F)(F)F)n3)CC2)C1 on human JAK1 (a.a. 837-1142) catalytic domain (Homo sapiens)?
Result: < 20 nM

###

biological target: human JAK2 (a.a. 828-1132) catalytic domain (Homo sapiens); construct: human JAK1 (a.a. 837-1142) and JAK2 (a.a. 828-1132); His tag (N); made in house; host or cells: insect cells (baculovirus); assay: In vitro JAK kinase assay (HTRF, phosphorylation of a biotinylated peptide), JAK2; type: biochemical; details: 1 mM ATP
readout kind: IC50

Below: 4 compounds and their reported IC50.
N#CC[C@]1(n2cc(-c3ncnc4[nH]ccc34)cn2)C[C@H](N2CCC(Oc3cc(Cn4cncn4)cc(C(F)(F)F)n3)CC2)C1 [Example 23]; 20 to 150 nM
N#CC[C@]1(n2cc(-c3ncnc4[nH]ccc34)cn2)C[C@H](N2CCC(Oc3cc(CN[C@H]4CCOC4)cc(C(F)(F)F)n3)CC2)C1 [Example 7]; 20 to 150 nM
N#CC[C@]1(n2cc(-c3ncnc4[nH]ccc34)cn2)C[C@H](N2CCC(Oc3cc(CN4CC(C#N)C4)cc(C(F)(F)F)n3)CC2)C1 [Example 4]; 20 to 150 nM
CN(c1cc(CO)cc(C(F)(F)F)n1)C1CCN([C@H]2C[C@](CC#N)(n3cc(-c4ncnc5[nH]ccc45)cn3)C2)CC1 [Example 47]; 150 to 500 nM

Ask: Requested read-out: IC50. Entry: C[C@@H](O)CNCc1cc(OC2CCN([C@H]3C[C@](CC#N)(n4cc(-c5ncnc6[nH]ccc56)cn4)C3)CC2)nc(C(F)(F)F)c1 [Example 14]
Result: 20 to 150 nM
